# ASSAY METHOD TEXT: Dissociation constant, acidic pKa of the compound by potentiometric assay
# Type: physicochemical
A collection of molecules and their measured pKa
Hey, just send me the number, nothing else.

Inquiry: // returns reported pKa for input CCN(Cc1cc(C(F)(F)F)ccc1-c1cn(CC(=O)O)c2cccnc12)C(=O)C1CC1
Reply text: 2.5

Inquiry: // returns reported pKa for input CCN(Cc1cc(C(F)(F)F)ccc1-c1nn(CC(=O)O)c2ccccc12)C(=O)C1CC1
Reply text: 2.8

Inquiry: // returns reported pKa for input CCN(Cc1cc(C(F)(F)F)ccc1-n1cc(CC(=O)O)c2cccnc21)C(=O)C1CC1
Reply text: 2.4

Inquiry: // returns reported pKa for input CCN(Cc1cc(C(F)(F)F)ccc1-c1cn(CC(=O)O)c2ccncc12)C(=O)C1CC1
Reply text: 2.4

Inquiry: // returns reported pKa for input CCN(Cc1cc(C(F)(F)F)ccc1-c1nc(CC(=O)O)c2ccccn12)C(=O)C1CC1
Reply text: 3

Inquiry: // returns reported pKa for input CCN(Cc1cc(C(F)(F)F)ccc1-c1cc(CC(=O)O)n2cccnc12)C(=O)C1CC1
Reply text: 3.7

* * *

# ASSAY METHOD TEXT: Mean residence time in rat at 1 mg/kg
# Format: ADME, organism-based
# Parameters: dose 1 mg/kg
# EXPERIMENTAL CONTEXT: in vivo
A collection of compounds and their measured MRT
Field format: number, assumed h, no unit text.

>>> result_value("CCN(Cc1cc(C(F)(F)F)ccc1-c1nn(CC(=O)O)c2ccccc12)C(=O)C1CC1")
2.4
>>> result_value("CCN(Cc1cc(C(F)(F)F)ccc1-n1cc(CC(=O)O)c2cccnc21)C(=O)C1CC1")
3.4
>>> result_value("CCN(Cc1cc(C(F)(F)F)ccc1-c1cn(CC(=O)O)c2ccccc12)C(=O)C1CC1")
1.6

With those in mind, consider the next compound.
Inquiry: // returns reported MRT for input CCN(Cc1cc(C(F)(F)F)ccc1-c1cc(CC(=O)O)ccc1OC)C(=O)C1CC1
Reply text: 4.7

* * *

# ASSAY METHOD TEXT: Apparent permeability of the compound at 20 uM incubated at 20 degC for 5 hrs in 2% DMSO containing PBS buffer solution by PAMPA assay
# Assay type: physicochemical
A collection of molecules and their measured Papp at 5 h, 20 µM
Field format: number, assumed ×10⁻⁶ cm/s, no unit text.

>>> result_value("CCN(Cc1cc(C(F)(F)F)ccc1-c1cc(CC(=O)O)ccc1OC)C(=O)C1CC1")
1.5

Inquiry: // returns reported Papp at 5 h, 20 µM for input CCN(Cc1cc(C(F)(F)F)ccc1-c1nn(CC(=O)O)c2ccccc12)C(=O)C1CC1
Reply text: 0.18

Inquiry: // returns reported Papp at 5 h, 20 µM for input CCN(Cc1cc(C(F)(F)F)ccc1-n1cc(CC(=O)O)c2cccnc21)C(=O)C1CC1
Reply text: 1.1

Inquiry: // returns reported Papp at 5 h, 20 µM for input CCN(Cc1cc(C(F)(F)F)ccc1-c1cn(CC(=O)O)c2ccccc12)C(=O)C1CC1
Reply text: 0.6

* * *

# ASSAY METHOD TEXT: Cmax in rat at 1 mg/kg
# Assay type: ADME, organism-based
# Design: dose 1 mg/kg
# EXPERIMENTAL CONTEXT: in vivo
A collection of compounds and their measured Cmax
Output should be the measured figure followed by the unit it is expressed in.

>>> result_value("CCN(Cc1cc(C(F)(F)F)ccc1-n1cc(CC(=O)O)c2cccnc21)C(=O)C1CC1")
"926 ng/mL"
>>> result_value("CCN(Cc1cc(C(F)(F)F)ccc1-c1cn(CC(=O)O)c2ccccc12)C(=O)C1CC1")
"571 ng/mL"
>>> result_value("CCN(Cc1cc(C(F)(F)F)ccc1-c1cc(CC(=O)O)ccc1OC)C(=O)C1CC1")
"1530 ng/mL"

With those in mind, consider the next compound.
Inquiry: // returns reported Cmax for input CCN(Cc1cc(C(F)(F)F)ccc1-c1nn(CC(=O)O)c2ccccc12)C(=O)C1CC1
Reply text: 550 ng/mL

* * *

A collection of compounds and their measured AUC(0-inf)
# ASSAY METHOD TEXT: AUC (0 to infinity) in rat at 1 mg/kg
# Format: ADME, organism-based
# Design: time infinity, dose 1 mg/kg
# EXPERIMENTAL CONTEXT: plasma
Field format: number, assumed ng·h/mL, no unit text.

Here's what some known entries look like.
>>> result_value("CCN(Cc1cc(C(F)(F)F)ccc1-c1nn(CC(=O)O)c2ccccc12)C(=O)C1CC1")
440
>>> result_value("CCN(Cc1cc(C(F)(F)F)ccc1-n1cc(CC(=O)O)c2cccnc21)C(=O)C1CC1")
885
>>> result_value("CCN(Cc1cc(C(F)(F)F)ccc1-c1cc(CC(=O)O)ccc1OC)C(=O)C1CC1")
2420

With those in mind, consider the next compound.
Inquiry: // returns reported AUC(0-inf) for input CCN(Cc1cc(C(F)(F)F)ccc1-c1cn(CC(=O)O)c2ccccc12)C(=O)C1CC1
Reply text: 559

* * *

A collection of molecules and their measured pKa
# ASSAY METHOD TEXT: Dissociation constant, basic pKa of the compound by potentiometric assay
# Type: physicochemical
Hey, just send me the number, nothing else.

Here's what some known entries look like.
>>> result_value("CCN(Cc1cc(C(F)(F)F)ccc1-c1cc(CC(=O)O)n2cccnc12)C(=O)C1CC1")
1.7
>>> result_value("CCN(Cc1cc(C(F)(F)F)ccc1-c1nc(CC(=O)O)c2ccccn12)C(=O)C1CC1")
4.8
>>> result_value("CCN(Cc1cc(C(F)(F)F)ccc1-c1cn(CC(=O)O)c2ccncc12)C(=O)C1CC1")
7.8
>>> result_value("CCN(Cc1cc(C(F)(F)F)ccc1-c1cn(CC(=O)O)c2cccnc12)C(=O)C1CC1")
5.6

With those in mind, consider the next molecule.
Inquiry: // returns reported pKa for input CCN(Cc1cc(C(F)(F)F)ccc1-n1cc(CC(=O)O)c2cccnc21)C(=O)C1CC1
Reply text: 4.2

* * *

A collection of molecules and their measured IC50
# ASSAY METHOD TEXT: Antagonist activity at CRTh2 receptor in human eosinophil assessed as inhibition of PGD2-induced cell shape change
Field format: number, assumed nM, no unit text.

Here's what some known entries look like.
>>> result_value("CCN(Cc1cc(C(F)(F)F)ccc1-c1cc(CC(=O)O)n2cccnc12)C(=O)C1CC1")
1.4
>>> result_value("CCN(Cc1cc(C(F)(F)F)ccc1-n1cc(CC(=O)O)c2ccccc21)C(=O)C1CC1")
84

Inquiry: // returns reported IC50 for input CCN(Cc1cc(C(F)(F)F)ccc1-c1nn(CC(=O)O)c2ccccc12)C(=O)C1CC1
Reply text: 47

* * *

# ASSAY METHOD TEXT: Permeability of the compound assessed as mass balance at 20 uM incubated at 20 degC for 5 hrs in 2% DMSO containing PBS buffer solution by PAMPA assay
# Format: ADME
# EXPERIMENTAL CONTEXT: read-out: Activity
METRIC NAME: recovery at 5 h, 20 µM (%)
Field format: number, assumed %, no unit text.

>>> result_value("CCN(Cc1cc(C(F)(F)F)ccc1-c1cn(CC(=O)O)c2ccccc12)C(=O)C1CC1")
71
>>> result_value("CCN(Cc1cc(C(F)(F)F)ccc1-c1nn(CC(=O)O)c2ccccc12)C(=O)C1CC1")
81
>>> result_value("CCN(Cc1cc(C(F)(F)F)ccc1-c1cc(CC(=O)O)ccc1OC)C(=O)C1CC1")
91

With those in mind, consider the next compound.
Inquiry: // returns reported recovery at 5 h, 20 µM for input CCN(Cc1cc(C(F)(F)F)ccc1-n1cc(CC(=O)O)c2cccnc21)C(=O)C1CC1
Reply text: 80

* * *

# TARGET OR TEST SYSTEM: Prostaglandin D2 receptor 2 (Homo sapiens, UniProt Q9Y5Y4)
# Sequence (Q9Y5Y4 whole entry): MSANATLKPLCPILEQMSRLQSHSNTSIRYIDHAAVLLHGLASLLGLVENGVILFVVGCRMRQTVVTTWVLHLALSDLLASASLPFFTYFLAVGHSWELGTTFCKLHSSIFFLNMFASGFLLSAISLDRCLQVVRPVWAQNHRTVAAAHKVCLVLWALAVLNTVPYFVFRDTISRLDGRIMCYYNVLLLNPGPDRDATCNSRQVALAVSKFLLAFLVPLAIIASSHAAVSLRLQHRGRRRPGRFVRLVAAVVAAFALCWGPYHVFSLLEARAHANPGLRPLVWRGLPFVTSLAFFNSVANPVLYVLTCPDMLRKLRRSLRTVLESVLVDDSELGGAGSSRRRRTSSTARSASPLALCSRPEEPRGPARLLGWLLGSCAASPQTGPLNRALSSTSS
# ASSAY METHOD TEXT: Antagonist activity at CRTh2 receptor (unknown origin) overexpressed in CHOK1 cell membranes assessed as inhibition of [35S]-GTPgammaS binding at 1 to 5 uM preincubated for 1 hr followed by 50 nM PGD2 and 0.1 nM [35S]-GTPgammaS addition measured after 2 hrs by liquid scintillation counting analysis relative to control
A collection of molecules and their measured IC50
Field format: number, assumed nM, no unit text.

>>> result_value("CCN(Cc1cc(C(F)(F)F)ccc1-c1cc(CC(=O)O)cc2cn(C)nc12)C(=O)C1CC1")
48
>>> result_value("CCN(Cc1cc(C(F)(F)F)ccc1-c1cc(CC(=O)O)cn2nccc12)C(=O)C1CC1")
247
>>> result_value("CCN(Cc1cc(C(F)(F)F)ccc1-c1cc(CC(=O)O)cn2cnnc12)C(=O)C1CC1")
398
>>> result_value("CCN(Cc1cc(C(F)(F)F)ccc1-c1cc(CC(=O)O)cc2cnn(C)c12)C(=O)C1CC1")
48

With those in mind, consider the next molecule.
Inquiry: Request - read-out IC50 | tested on Prostaglandin D2 receptor 2 (Homo sapiens, UniProt Q9Y5Y4) | molecule CCN(Cc1cc(C(F)(F)F)ccc1-c1cc(CC(=O)O)ccc1OC)C(=O)C1CC1
Reply text: 16
